# assayedSystem: Glucocorticoid receptor (Homo sapiens)
# assayText: GR-EFC Redistribution (AID 451); note: potency is the fitted concentration of half-maximal effect
# conditionLabel: CHO-K1 GR-EFC translocation, beta-gal luminescence, 2 h
Activity calls are given as the source filed them. Calls come from the whole dose curve.
Provide the reported Potency of each item.

Request: Lab note: need Potency with Glucocorticoid receptor (Homo sapiens) for entry "C=C1C[C@@]23C[C@]1(O)CC[C@@H]2[C@]12C=C[C@@H](O)[C@@](C)(C(=O)O1)[C@@H]2[C@@H]3C(=O)O" , please look it up.
Result: > 46 µM (inactive)

Request: Lab note: need Potency with Glucocorticoid receptor (Homo sapiens) for entry "CC(=O)[C@@H]1[C@H]2[C@@H](C(=O)[C@H]3OC[C@H]2O3)[C@@H]2C=Cc3ccccc3N12" , please look it up.
Result: > 46 µM (inactive)

Request: Lab note: need Potency with Glucocorticoid receptor (Homo sapiens) for entry "CC(C)[C@@H](CC(=O)N[C@@H]1CCNC[C@H]1C(=O)N[C@H](CC(=O)N[C@@H](CCC(=O)O)CC(=O)O)Cc1c[nH]c2ccccc12)NC(=O)C[C@H](Cc1ccccc1)NC(=O)[C@@H]1CCCC[C@H]1N" , please look it up.
Result: > 46 µM (inactive)

Request: Lab note: need Potency with Glucocorticoid receptor (Homo sapiens) for entry "CC(C)C[C@@H](CC(=O)N[C@@H](CCCN)CC(=O)N[C@@H]1CCCC[C@H]1C(=O)N[C@H](CC(=O)N[C@@H](CCC(=O)O)CC(=O)O)CC(C)C)NC(=O)[C@@H]1CNCC[C@H]1N" , please look it up.
Result: > 46 µM (inactive)

Request: Lab note: need Potency with Glucocorticoid receptor (Homo sapiens) for entry "CN1CCc2cc(O)c(O)cc2[C@H](c2ccccc2)C1" , please look it up.
Result: > 46 µM (inactive)

Request: Lab note: need Potency with Glucocorticoid receptor (Homo sapiens) for entry "CC(C)(C)c1cc(Br)c(O)c(CN(Cc2cc(C(C)(C)C)cc(Br)c2O)C2CCCCC2)c1" , please look it up.
Result: > 9.22 µM (inactive)

Request: Lab note: need Potency with Glucocorticoid receptor (Homo sapiens) for entry "Nc1ncnc2c1ncn2[C@@H]1O[C@@H](COP(=O)(O)OP(=O)(O)OP(=O)(O)OP(=O)(O)OC[C@@H]2O[C@@H](n3cnc4c(N)ncnc43)[C@@H](O)[C@H]2O)[C@H](O)[C@@H]1O" , please look it up.
Result: > 46 µM (inactive)

Request: Lab note: need Potency with Glucocorticoid receptor (Homo sapiens) for entry "CC(C)C[C@@H](CC(=O)N[C@@H](CCCN)CC(=O)N[C@@H]1CCCC[C@H]1C(=O)N[C@H](CC(=O)N[C@@H](CCC(=O)O)CC(=O)O)Cc1c[nH]c2ccccc12)NC(=O)[C@@H]1CNCC[C@H]1N" , please look it up.
Result: > 46 µM (inactive)

Request: Lab note: need Potency with Glucocorticoid receptor (Homo sapiens) for entry "COc1cc([C@@H]2Oc3cc([C@H]4Oc5cc(O)cc(O)c5C(=O)[C@H]4O)ccc3O[C@H]2CO)ccc1O" , please look it up.
Result: > 46 µM (inactive)

Request: Lab note: need Potency with Glucocorticoid receptor (Homo sapiens) for entry "Cc1cc(-c2cc(C)c(O)c(C(C)(C)C)c2)cc(C(C)(C)C)c1O" , please look it up.
Result: > 9.22 µM (inactive)

Request: Lab note: need Potency with Glucocorticoid receptor (Homo sapiens) for entry "COc1ccc(-c2coc3ccc(O[C@@H]4O[C@@H](COC(C)=O)[C@@H](OC(C)=O)[C@@H](OC(C)=O)[C@H]4OC(C)=O)c(OC(C)=O)c3c2=O)cc1" , please look it up.
Result: > 46 µM (inactive)

Request: Lab note: need Potency with Glucocorticoid receptor (Homo sapiens) for entry "OC[C@@H]1O[C@@H](n2cnc3cncnc32)[C@@H](O)[C@H]1O" , please look it up.
Result: > 46 µM (inactive)

Request: Lab note: need Potency with Glucocorticoid receptor (Homo sapiens) for entry "NCCC[C@@H](CC(=O)N[C@@H]1CCNC[C@H]1C(=O)N[C@H](CC(=O)N[C@@H](CCC(=O)O)CC(=O)O)Cc1ccccc1)NC(=O)C[C@H](Cc1c[nH]c2ccccc12)NC(=O)[C@@H]1CCCC[C@H]1N" , please look it up.
Result: > 46 µM (inactive)

* * *

# assayText: Cell Viability - LYMP2-017 (AID 972);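 note: cells exposed to compound for 24 hours at 37 °C; nearly all actives have a fitted effect of over 55% in size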
# conditionLabel: LYMP2-017 lymphoblastoid cell viability; series mostly up to 92.2 µM
Records with an inconclusive call do not appear. The source made the active and inactive calls. The call rests on the fitted dose curve; in most records, active means well fitted cell-killing curve with a large enough effect; inconclusive means small, poorly fitted or top-dose-only effect; inactive means flat fitted curve, though single readings scatter.
Give one outcome, nothing more. List: active, inactive

Request: Tell me the assay call for "Cc1cc(O)c(C(C)(C)C)cc1Sc1cc(C(C)(C)C)c(O)cc1C" please.
Result: active

Request: Tell me the assay call for "C=CC(=O)OCCOCCOC(=O)C=C" please.
Result: active

Request: Tell me the assay call for CCC(C)Nc1ccc(NC(C)CC)cc1 (stereo not drawn) please.
Result: active

Request: Tell me the assay call for "Cc1cc(Nc2ccc(O)cc2)ccc1N" please.
Result: active

Request: Tell me the assay call for "O=C1OC2(c3cc(Br)c(O)c(Br)c3Oc3c2cc(Br)c(O)c3Br)c2c(Cl)c(Cl)c(Cl)c(Cl)c21" please.
Result: inactive

Request: Tell me the assay call for "O=C(OCC(COC(=O)c1ccccc1)(COC(=O)c1ccccc1)COC(=O)c1ccccc1)c1ccccc1" please.
Result: inactive

Request: Tell me the assay call for "Cc1cccc(O)c1C" please.
Result: inactive

Request: Tell me the assay call for "C=C(C)c1ccccc1" please.
Result: inactive

Request: Tell me the assay call for "O=Cc1ccc(Cl)c(Cl)c1" please.
Result: inactive

Request: Tell me the assay call for O=C1OC(O)C(C(Cl)Cl)=C1Cl (stereo not drawn) please.
Result: active

Request: Tell me the assay call for "CN(C)c1ccc(C2(c3ccc(N(C)C)cc3)OC(=O)c3cc(N(C)C)ccc32)cc1" please.
Result: inactive

Request: Tell me the assay call for O=C(/C=C/c1ccc(O)c(O)c1)OC1C[C@](O)(C(=O)O)C[C@@H](O)[C@H]1O (stereo partly drawn) please.
Result: inactive

Request: Tell me the assay call for "CCCCCC/C(C=O)=C\c1ccccc1" please.
Result: inactive

* * *

# assayText: NFAT Signaling Pathway (AID 444);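 note: carbachol stimulus at about its EC50 of 1 µM final; % is set by controls: 0 for no effect and ±100 for the full control effect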
# conditionLabel: Jurkat NFAT-bla M1, carbachol, beta-lactamase ratio, 5 h; at 17.2 µM (top of the series) unless noted
Records with an inconclusive call do not appear.
metricName: activity change, negative = inhibition (%)
Give a bare numeral; the unit % is implied.

Request: // activity change, negative = inhibition lookup, key: "COC(=O)c1ccc(CSc2nc(N3CCOCC3)c3c(c2C#N)CC(C)(C)OC3)o1"
Result: -8.92

Request: // activity change, negative = inhibition lookup, key: "O=C(NCc1ccco1)c1ccc(=O)oc1"
Result: 6.96

Request: // activity change, negative = inhibition lookup, key: CCN1C(=O)CC(N2CCN(c3ccc(OC)cc3)CC2)C1=O (stereo unspecified)
Result: 1.19

Request: // activity change, negative = inhibition lookup, key: "Cc1ccc2[nH]c(CCN(C)C)c(CC#N)c2c1"
Result: 8.6

Request: // activity change, negative = inhibition lookup, key: CCCCCOC(=O)C(C)c1c(C)[nH]c(=S)[nH]c1=O (stereo unspecified)
Result: 6.16

Request: // activity change, negative = inhibition lookup, key: "CCCNC(=O)N(C)c1nncnc1C(=O)NC"
Result: 2.36

* * *

# assayText: NFAT Signaling Pathway (AID 444);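 note: carbachol stimulus at about its EC50 of 1 µM final; % is set by controls: 0 for no effect and ±100 for the full control effect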
# conditionLabel: Jurkat NFAT-bla M1, carbachol, beta-lactamase ratio, 5 h; at 17.2 µM (top of the series) unless noted
Inconclusive results are not listed.
Provide the reported activity change, negative = inhibition of each item.
Give a bare numeral; the unit % is implied.

Request: // activity change, negative = inhibition lookup, key: "CC1(C)CC(=O)C(CCCN2C(=O)c3ccccc3C2=O)C(=O)C1"
Result: 2.72

Request: // activity change, negative = inhibition lookup, key: "COc1ccc(C(=O)Nc2ccccc2N2CCOCC2)cc1Br"
Result: 9.59

Request: // activity change, negative = inhibition lookup, key: CN1C(=S)SC(N(O)C(=O)Nc2ccccc2)C1(C)C (configuration not stated)
Result: -13.4

Request: // activity change, negative = inhibition lookup, key: "O=C(CSc1nnc(-c2ccccc2)c(-c2ccccc2)n1)N1CCOCC1"
Result: 0.00472

Request: // activity change, negative = inhibition lookup, key: "O=C(CSc1nnc(-c2ccco2)c(-c2ccco2)n1)Nc1ccccc1"
Result: -3.07

Request: // activity change, negative = inhibition lookup, key: COCCOCCOCCC(=O)NC1CC2CCC1(C)C2(C)C (configuration not stated)
Result: 0.73

Request: // activity change, negative = inhibition lookup, key: "CCOc1nc(-c2ccncc2)nc2ccccc12"
Result: 2.73

Request: // activity change, negative = inhibition lookup, key: O=C1c2ccccc2S(=O)(=O)N1CC(O)COc1ccc(Cl)cc1 (configuration not stated)
Result: -2.04

Request: // activity change, negative = inhibition lookup, key: "CNC(=O)CCn1nc(-c2ccccc2)c2ccccc2c1=O"
Result: -2.43

Request: // activity change, negative = inhibition lookup, key: "O=C(O)c1cc2sccc2s1"
Result: -6.24

Request: // activity change, negative = inhibition lookup, key: CC(O)c1n(C)c(Cl)c[n+]1C (configuration not stated)
Result: -4.99

Request: // activity change, negative = inhibition lookup, key: "CCOC(=O)CC(=O)CSc1nc2c(cc1C#N)CCCCCC2"
Result: 2.93

Reference for the values: PubChem BioAssay (NCATS)
